Test system: A549
Test: relative viability (normalised to negative control = 1, bortezomib = 0) (fraction); higher = less cytotoxic
Conditions: inflammatory serum-free RHB-A with cytokines + LPS; 5 d + 24 h CellTiter-Blue; compound 30 nM; GSK126 pretreatment: 5 uM GSK126
In this section, each of the compounds is paired with its reported relative viability.
Answer field: number only, no words.

compound	relative viability
Nc1nc(N)c2nc(-c3cccc(O)c3)c(-c3cccc(O)c3)nc2n1	0.719

For Cc1ncc(-c2ccnc(Nc3ccc(S(C)(=O)=O)cc3)n2)n1C(C)C , what is its reported relative viability?
0.867

How about this compound: CN(N=O)C(=O)N[C@@H]1[C@@H](O)[C@H](O)[C@@H](CO)O[C@@H]1O
0.985

Now give it for Nc1nc2[nH]cnc2c(=S)[nH]1 too.
0.978

Now consider CNC(=O)c1cc(Oc2ccc(NC(=O)Nc3ccc(Cl)c(C(F)(F)F)c3)c(F)c2)ccn1 [Regorafenib; BAY 73-4506(Regorafenib)] .
0.913

Input Fc1cc(-c2cccc3ncc(-c4cnn(C5CCNCC5)c4)nc23)cc(F)c1CN1CCOCC1
0.927

What do we get for Cc1ccc(NC(=O)c2cccc(N(C)C)c2)cc1NC(=O)c1ccc(O)cc1 ?
0.965

Same for COc1ccc(S(=O)(=O)N(C(C)=O)c2ccccc2/C=C/c2cc[n+]([O-])cc2)cc1
0.924
